The entries below come with measured kon values attached.
# measured-on: T1, Human TNFR2-His (Sino 10417-H08H) (human, UniProt P20333 23-257)
# T1 construct: Bought protein; also called recombinant human TNFR2 protein; not shown: His tag
# T1 sequence (looked up): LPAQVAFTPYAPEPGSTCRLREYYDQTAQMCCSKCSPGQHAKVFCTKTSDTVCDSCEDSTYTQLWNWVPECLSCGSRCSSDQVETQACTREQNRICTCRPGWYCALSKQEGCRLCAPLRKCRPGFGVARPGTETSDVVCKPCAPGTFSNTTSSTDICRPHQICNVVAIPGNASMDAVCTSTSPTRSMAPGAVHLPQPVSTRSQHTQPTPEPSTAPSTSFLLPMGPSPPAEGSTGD
# protocol-summary: SPR (Biacore T200), antibody captured on Protein A chip
The number alone won't do; follow it with the unit.

Before answering, review these 4 worked examples.
219-WT (antibody, V domains shown, Human-murine chimeric wild-type molecule) VH: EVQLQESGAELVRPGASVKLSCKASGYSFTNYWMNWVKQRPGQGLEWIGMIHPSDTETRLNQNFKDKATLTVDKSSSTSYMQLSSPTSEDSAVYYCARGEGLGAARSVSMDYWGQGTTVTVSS VL: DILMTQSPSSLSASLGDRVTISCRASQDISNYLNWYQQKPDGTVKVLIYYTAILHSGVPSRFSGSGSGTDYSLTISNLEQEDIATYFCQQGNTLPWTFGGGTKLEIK | 346000 M⁻¹ s⁻¹
224-WT (antibody, V domains shown, Human-murine chimeric wild-type molecule; also called human-murine chimeric antibody WT of #224) VH: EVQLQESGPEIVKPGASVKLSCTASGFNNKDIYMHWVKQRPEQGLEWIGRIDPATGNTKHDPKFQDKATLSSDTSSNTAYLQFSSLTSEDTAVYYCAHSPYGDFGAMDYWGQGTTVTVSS VL: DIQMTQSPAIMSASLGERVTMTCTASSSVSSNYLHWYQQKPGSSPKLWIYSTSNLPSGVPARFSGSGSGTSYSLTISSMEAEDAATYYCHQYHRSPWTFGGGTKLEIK | 174000 M⁻¹ s⁻¹
224-Hu4 (antibody, V domains shown, Humanized form of #224; also called VH9 + VL6) VH: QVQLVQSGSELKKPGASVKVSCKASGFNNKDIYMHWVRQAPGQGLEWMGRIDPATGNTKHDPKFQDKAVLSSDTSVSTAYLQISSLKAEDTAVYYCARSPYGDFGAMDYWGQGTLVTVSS VL: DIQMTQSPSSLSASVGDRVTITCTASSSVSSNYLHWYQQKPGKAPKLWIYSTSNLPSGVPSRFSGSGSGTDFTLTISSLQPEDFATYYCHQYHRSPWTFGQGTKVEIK | 129000 M⁻¹ s⁻¹
001-Hu5 (antibody, V domains shown, Humanized form of #001; also called VH1 + VL4) VH: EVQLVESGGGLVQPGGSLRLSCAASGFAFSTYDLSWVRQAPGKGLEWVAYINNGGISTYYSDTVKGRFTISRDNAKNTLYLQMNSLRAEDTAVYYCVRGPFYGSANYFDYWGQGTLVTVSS VL: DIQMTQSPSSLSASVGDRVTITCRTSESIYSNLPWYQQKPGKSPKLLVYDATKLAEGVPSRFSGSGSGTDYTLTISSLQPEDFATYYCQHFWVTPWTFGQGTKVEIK | 277000 M⁻¹ s⁻¹

With those in mind, consider the next binder.
Form field: reported kon of 001-Hu1 (antibody, V domains shown, Humanized form of #001; also called VH1 + VL1) VH: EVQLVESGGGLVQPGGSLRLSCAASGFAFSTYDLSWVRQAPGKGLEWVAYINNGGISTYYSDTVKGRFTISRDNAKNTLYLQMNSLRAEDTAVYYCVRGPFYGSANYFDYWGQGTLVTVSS VL: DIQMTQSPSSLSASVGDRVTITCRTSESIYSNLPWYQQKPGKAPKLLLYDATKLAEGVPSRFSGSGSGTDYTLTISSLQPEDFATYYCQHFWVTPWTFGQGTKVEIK 291000 M⁻¹ s⁻¹

// provenance: patent US20240109974A1
